- Test system: A2780
- TEST NAME: MTT proliferation / cytotoxicity assay
- Assay type: cell-based, human
- CONDITION SUMMARY: Homo sapiens, A2780, 72 h
Provide the recorded IC50 for the entries that follow.

Example entries begin here.
Fc1ccc(-c2cnc(Nc3cccc(CC4CCC5CNCC54)n3)s2)cc1 (stereo not shown) [Example 020] = < 1 µM
OCCN1CCC(c2ccnc(Nc3ncc(-c4ccc(F)cc4)s3)c2)CC1 [Example 035] = > 1 µM
OCCN1CCC(c2ccnc(Nc3ncc(-c4ccccc4F)s3)c2)CC1 [Example 036] = > 1 µM
CN1CCOCC(Cc2ccnc(Nc3ncc(-c4ccc(F)cc4)s3)c2)C1 (stereo not shown) [Example 010] = > 1 µM
OCCN1CCC(c2ccnc(Nc3ncc(CC(F)(F)F)s3)c2)CC1 [Example 040] = > 10 µM

Look up IC50 for the entries below, preserving their order.
1. Cc1nc(Nc2ncc(-c3ccccc3)s2)cc(C2CCN(CCO)CC2)n1 [Example 032]
2. Fc1ccc(-c2cnc(Nc3cccc(CC4COC5(CCNCC5)C4)n3)s2)cc1 (stereo not shown) [Example 024]
3. COC(=O)C1CC(Cc2ccnc(Nc3ncc(-c4ccccc4)s3)c2)CC1N (stereo not shown) [Example 023]
4. CCCc1cnc(Nc2cccc(C3CCN(C(=O)C(C)(C)N)CC3)n2)s1 [Example 041]
5. c1ccc(-c2cnc(Nc3cc(C4CCCNC4)ccn3)s2)cc1 (stereo not shown) [Example 028]

Output:
≤ 1 µM
≤ 1 µM
> 1 µM
≤ 1 µM
> 1 µM

Look up IC50 for the entries below, preserving their order.
1. CS(=O)(=O)N1CCC(Cc2ccnc(Nc3ncc(-c4ccc(F)cc4)s3)c2)CC1 [Example 005]
2. CC(=O)N1CCOCC(Cc2ccnc(Nc3ncc(-c4ccc(F)cc4)s3)c2)C1 (stereo not shown) [Example 012]

Output:
1: > 1 µM; 2: > 1 µM
